// values below are IC50; system is purified human placenta 20S proteasome (Homo sapiens, UniProt P28074)
Numeric only. Scale: µM

Before answering, review these 2 worked examples.
# structure, IC50, µM
rows = [
    ("COc1ccc(CNC(=O)[C@@H](NC(=O)[C@H](NCc2cccc3ccccc23)[C@H](O)[C@H](Cc2ccccc2)NC(=O)[C@@H](NC(=O)OCc2ccccc2)C(C)(C)C)C(C)C)c(O)c1", 0.26),
    ("COc1cc(CN[C@@H](C(=O)N[C@H](C(=O)NCc2ccc(OC)cc2O)C(C)C)[C@H](O)[C@H](Cc2ccccc2)NC(=O)[C@@H](NC(=O)OCc2ccccc2)C(C)(C)C)cc(OC)c1", 0.19),
]

In: Requested field: IC50. Item: `COc1ccc(CNC(=O)[C@@H](NC(=O)[C@H](NCc2cccc3ccccc23)[C@H](O)[C@H](Cc2ccccc2)NC(=O)[C@@H](NC(=O)Cc2cccc3ccccc23)C(C)(C)C)C(C)C)c(O)c1`
Out: 0.15
